- target desc: T1, GIP receptor (GIPR) (UniProt P48546 22-466, limits assumed)
- T1 sequence (looked up): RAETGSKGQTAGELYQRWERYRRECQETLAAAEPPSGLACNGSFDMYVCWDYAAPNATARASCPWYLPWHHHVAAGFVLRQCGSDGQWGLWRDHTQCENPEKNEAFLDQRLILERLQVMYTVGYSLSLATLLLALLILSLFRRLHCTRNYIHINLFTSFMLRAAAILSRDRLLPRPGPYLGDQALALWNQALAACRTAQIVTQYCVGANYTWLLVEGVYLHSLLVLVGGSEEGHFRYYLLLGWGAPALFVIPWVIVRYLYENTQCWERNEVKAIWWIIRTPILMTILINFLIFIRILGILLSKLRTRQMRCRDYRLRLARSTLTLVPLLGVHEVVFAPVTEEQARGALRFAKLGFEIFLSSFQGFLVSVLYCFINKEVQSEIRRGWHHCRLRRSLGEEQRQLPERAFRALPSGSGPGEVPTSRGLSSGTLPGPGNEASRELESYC
- run description: cell-based or functional assay
Bridge positions count the residues as written; N and C are the ends. Square brackets hold non-standard residues; d marks the D form. Ends that are not written are not given here. stapled body chem0195 = not defined here; αMeL = CC(C)C[C@](C)(N)C(=O)O; Aib = CC(C)(N)C(=O)O
parameter measured: GIP-1 EC50 (nM); cAMP, agonistic activity
Please give a number only; it is taken to be in nM.

Quote GIP-1 EC50 (nM); cAMP, agonistic activity reported for Y[Aib]QGTFTSDYSI[αMeL]LDKKAQ[Aib]AFIKWLLKGGPSSGAPPPS-NH2 (linker 24-28 via stapled body chem0195; reading uncertain; also: further groups not given here) [Example 2] please.
0.001

Name the recorded GIP-1 EC50 (nM); cAMP, agonistic activity of the item H[Aib]HGTFTSDYSIYLEKKYA[Aib]KFVQWLLEGGPSSGAPPPS-NH2 (bridge 17-21; not fully specified (bridges); also: stapled body (lipidated) structure only in drawing chem0198) [Example 5] in your answer.
0.007

Quick one: give measured GIP-1 EC50 (nM); cAMP, agonistic activity for Y[Aib]QGTFTSDYSI[αMeL]KDKKAQ[Aib]AFIQYLLEGGPSSGAPPPS-NH2 (bridge 14-17; not fully specified (bridges); also: stapled body (lipidated) structure only in drawing chem0245) [Example 42]
0.0005
